pIC50 listing for selected compounds.
Test: Cytotoxicity against human MCF-10A cells assessed as inhibition of cell proliferation by MTT assay
Type: toxicity, cell-based
pIC50: −log10 of the molar value.
readout kind: pIC50

>>> reported("O=C(OCCOc1no[n+]([O-])c1S(=O)(=O)c1ccccc1)c1cc2ccc(N(Cc3ccccc3)Cc3ccccc3)cc2oc1=O")
4.47
>>> reported("O=C(c1cc2ccc(N(Cc3ccccc3)Cc3ccccc3)cc2oc1=O)N1CCN(CCOc2no[n+]([O-])c2S(=O)(=O)c2ccccc2)CC1")
5.07

----------
Each entry below carries its reported pIC50.
Test system: 4T1
Assay: Antiproliferative activity against mouse 4T1 cells assessed as inhibition of cell proliferation by MTT assay
Type: functional, cell-based
pIC50: −log10 of the molar value.
readout kind: pIC50

>>> reported("O=C(OCCOc1no[n+]([O-])c1S(=O)(=O)c1ccccc1)c1cc2ccc(N(Cc3ccccc3)Cc3ccccc3)cc2oc1=O")
6.89
>>> reported("O=C(c1cc2ccc(N(Cc3ccccc3)Cc3ccccc3)cc2oc1=O)N1CCN(CCOc2no[n+]([O-])c2S(=O)(=O)c2ccccc2)CC1")
6.02
>>> reported("CCN(CC)c1ccc2cc(C(=O)OCCOc3no[n+]([O-])c3S(=O)(=O)c3ccccc3)c(=O)oc2c1")
5.89

----------
Assay: Cytotoxicity against human MCF-10A cells assessed as inhibition of cell proliferation by MTT assay
Assay type: toxicity, cell-based
pIC50: −log10 of the molar value.
readout kind: pIC50

>>> reported("CCN(CC)c1ccc2cc(C(=O)OCCO)c(=O)oc2c1")
"< 4.00"
>>> reported("O=C(O)c1cc2ccc(N(Cc3ccccc3)Cc3ccccc3)cc2oc1=O")
"< 4.00"
>>> reported("O=C(OCCO)c1cc2ccc(N(Cc3ccccc3)Cc3ccccc3)cc2oc1=O")
"< 4.00"

----------
Below: a set of entries, each annotated with reported IC50.
Test system: 4T1
Experiment: Antiproliferative activity against mouse 4T1 cells assessed as inhibition of cell proliferation by MTT assay
Type: functional, cell-based
readout kind: IC50

>>> reported("O=C(O)c1cc2ccc(N(Cc3ccccc3)Cc3ccccc3)cc2oc1=O")
"> 100 µM"
>>> reported("O=C(OCCO)c1cc2ccc(N(Cc3ccccc3)Cc3ccccc3)cc2oc1=O")
"> 100 µM"
>>> reported("CCN(CC)c1ccc2cc(C(=O)OCCO)c(=O)oc2c1")
"> 100 µM"
